Target: Adenosine receptor A1 (Homo sapiens)
Test: Percent change in cAMP content of CHO (Chinese hamster ovary) cells expressing human Adenosine A1 receptor at 1 uM
Assay type: functional, cell-based
Decide by Change: equal to or exceeding -20% means T, less means F.

For orientation, consider the following solved cases.
compound=COc1ccc(C(=O)c2c(N)sc3c2CCCC3)c2ccccc12 assayedsystem="Adenosine receptor A1 (Homo sapiens)" labelclass=T
compound=Nc1sc2c(c1C(=O)c1ccc(I)c3ccccc13)CCC2 assayedsystem="Adenosine receptor A1 (Homo sapiens)" labelclass=F
compound=Cc1cc(C(=O)c2c(N)sc3c2CCN(Cc2ccccc2)C3)cc2ccccc12 assayedsystem="Adenosine receptor A1 (Homo sapiens)" labelclass=T

# bool: Change of Nc1sc2c(c1C(=O)c1ccc3ccccc3c1)CCC(Cc1ccccc1)C2 (stereo unspecified) >= -20%
T

Identify whether the reported Change of the following compound is -20% or greater: Nc1sc2c(c1C(=O)c1ccc(Br)c3ccccc13)CCCC2
F

Form field: Change at least -20%? Entry: Nc1sc2c(c1C(=O)c1ccc3ccccc3c1)CCN(Cc1ccccc1)C2
T
